Target entity: Prostaglandin G/H synthase 2 (Mus musculus, UniProt Q05769)
Sequence (Q05769 18-604 limits assumed): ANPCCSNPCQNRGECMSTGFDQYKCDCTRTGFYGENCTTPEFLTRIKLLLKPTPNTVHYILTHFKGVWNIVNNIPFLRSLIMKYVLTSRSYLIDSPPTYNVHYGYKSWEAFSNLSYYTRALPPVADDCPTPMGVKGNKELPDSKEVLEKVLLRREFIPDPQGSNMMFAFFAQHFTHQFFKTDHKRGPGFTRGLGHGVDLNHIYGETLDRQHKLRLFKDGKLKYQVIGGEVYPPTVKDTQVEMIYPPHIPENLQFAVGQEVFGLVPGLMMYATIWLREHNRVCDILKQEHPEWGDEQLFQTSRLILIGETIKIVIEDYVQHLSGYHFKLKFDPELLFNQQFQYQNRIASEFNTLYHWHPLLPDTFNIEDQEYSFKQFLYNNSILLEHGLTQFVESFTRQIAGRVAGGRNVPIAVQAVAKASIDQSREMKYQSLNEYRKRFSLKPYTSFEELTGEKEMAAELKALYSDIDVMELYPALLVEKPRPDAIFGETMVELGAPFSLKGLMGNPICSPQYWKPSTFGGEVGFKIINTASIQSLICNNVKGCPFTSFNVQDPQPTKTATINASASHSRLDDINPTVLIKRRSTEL
Assay overview: Inhibitory concentration against V891 mutant murine Prostaglandin G/H synthase 2
Measure name: IC50 (nM)

(1) COc1ccc2c(c1)c(CC(=O)N[C@@H](C)CO)c(C)n2C(=O)c1ccc(Cl)cc1
(2) COc1ccc2c(c1)c(CC(=O)N[C@H](C)CO)c(C)n2C(=O)c1ccc(Cl)cc1
Select the item with the higher value of IC50 from the options 1 and 2 listed. Give the chosen item's label as your response.
2

---

Target entity: Prostaglandin G/H synthase 1 (Ovis aries, UniProt P05979)
Sequence (P05979 whole entry): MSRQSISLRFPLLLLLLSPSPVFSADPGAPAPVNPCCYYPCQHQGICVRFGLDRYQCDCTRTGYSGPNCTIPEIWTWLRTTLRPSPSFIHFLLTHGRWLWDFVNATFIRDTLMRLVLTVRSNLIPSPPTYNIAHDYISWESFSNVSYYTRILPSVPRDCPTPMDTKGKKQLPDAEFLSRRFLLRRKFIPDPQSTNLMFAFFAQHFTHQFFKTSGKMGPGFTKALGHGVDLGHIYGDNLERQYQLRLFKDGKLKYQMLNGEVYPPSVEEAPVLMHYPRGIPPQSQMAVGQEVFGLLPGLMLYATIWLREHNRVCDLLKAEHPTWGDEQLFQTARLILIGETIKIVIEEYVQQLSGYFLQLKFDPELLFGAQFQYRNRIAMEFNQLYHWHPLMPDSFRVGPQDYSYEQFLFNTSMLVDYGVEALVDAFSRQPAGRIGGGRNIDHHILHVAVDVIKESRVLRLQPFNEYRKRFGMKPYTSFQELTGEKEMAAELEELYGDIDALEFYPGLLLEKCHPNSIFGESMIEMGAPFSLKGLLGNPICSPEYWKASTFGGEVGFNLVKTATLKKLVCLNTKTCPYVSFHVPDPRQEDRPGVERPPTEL
Measure name: IC50

smiles_str=COc1ccc2c(c1)c(CC(=O)N[C@H](CO)Cc1ccccc1)c(C)n2C(=O)c1ccc(Cl)cc1 assay_value="< 3.9 µM"
smiles_str=COc1ccc2c(c1)c(CC(=O)NC[C@H](O)c1ccccc1)c(C)n2C(=O)c1ccc(Cl)cc1 assay_value="> 63 µM"
smiles_str=COc1ccc2c(c1)c(CC(=O)NCCCCCO)c(C)n2C(=O)c1ccc(Cl)cc1 assay_value="> 83 µM"
smiles_str=COc1ccc2c(c1)c(CC(=O)N[C@H](CO)c1ccccc1)c(C)n2C(=O)c1ccc(Cl)cc1 assay_value="< 1.3 µM"

Name the recorded IC50 of COc1ccc2c(c1)c(CC(=O)N[C@@H](CO)C(C)C)c(C)n2C(=O)c1ccc(Cl)cc1 , assay system Prostaglandin G/H synthase 1 (Ovis aries, UniProt P05979).
> 63 µM
